Could you please report measured % Activity (small bowel inducing activity relative to native rat GLP-2(1-33) = 100%) for the items listed next?
- Test system: CD1 mice
- measurementDescription: Intestinotrophic activity assessment: small bowel weight in mice
- Type: in vivo
- measurementContext: mice, as Example 4; relative to native rat GLP-2(1-33)
Numbers only, in %.

For each of the items listed, what is its % Activity (small bowel inducing activity relative to native rat GLP-2(1-33) = 100%)?
1. H-HADGSFSDEMNTILDNLAARDFINYLIQTKITD-OH [[Tyr25]hGLP-2(1-33)]
2. H-PADGSFSDEMNTILDNLAARDFINWLIQTKITD-OH [[Pro1]hGLP-2(1-33)]
3. H-HAEGSFSDEMNTILDNLATRDFINWLIQTKITD-OH [[Glu3]ratGLP-2(1-33)]
4. H-HGDGSFSDEANTILDNLAARDFINWLIQTKITD-OH [[Gly2,Ala10]hGLP-2(1-33)]

1: 64; 2: 12; 3: 65; 4: 82

----------
- Test system: CD1 mice
- measurementDescription: Intestinotrophic activity assessment: small bowel weight in mice
- Type: in vivo
- measurementContext: CD1 mice, 2.5 μg peptide s.c. b.i.d. in PBS, sacrificed 10 or 14 days, relative to vehicle only
measuredParameter: % Increase in small bowel weight (%)
One number for each entry, in %.

Solved entries (count: 5):
H-HADGSFSDEMNTILDNLATRDFINWLIQTKITD-OH [ratGLP-2(1-33), reference compound]; 45
H-HGDGSFSDEMNAILDNLAARDFINWLIQTKITD-OH [[Gly2,Ala12]hGLP-2(1-33)]; 18
H-HADGSFSDEMNTILDNLATKDFINWLIQTKITD-OH [[Lys20]ratGLP-2(1-33)]; 62
H-HGDASFSDEMNTILDNLAARDFINWLIQTKITD-OH [[Gly2,Ala4]hGLP-2(1-33)]; 36
H-HGDGSFSDAMNTILDNLAARDFINWLIQTKITD-OH [[Gly2,Ala9]hGLP-2(1-33)]; 31

For each of the items listed, what is its % Increase in small bowel weight?
1. H-HADGSFSDEMNTILDNLATRDFINWLIQTKITD-NH2 [ratGLP-2(1-33)amide]
2. H-HGDGSFSDEMNTILDNLAARDFINWLIQTKATD-OH [[Gly2,Ala31]hGLP-2(1-33)]

23
28

For each of the items listed, what is its % Increase in small bowel weight?
1. H-HGDGSFSDEMNTILDNLAARDFINWLIATKITD-OH [[Gly2,Ala28]hGLP-2(1-33)]
2. H-HGAGSFSDEMNTILDNLAARDFINWLIQTKITD-OH [[Gly2,Ala3]hGLP-2(1-33)]
3. H-HADASFSDEMNTILDNLATRDFINWLIQTKITD-OH [[Ala4]ratGLP-2(1-33)]
4. H-HGDGSFSDEMNTILDNLAARAFINWLIQTKITD-OH [[Gly2,Ala21]hGLP-2(1-33)]
5. H-HGDGSFSAEMNTILDNLAARDFINWLIQTKITD-OH [[Gly2,Ala8]hGLP-2(1-33)]

1: 31; 2: 18; 3: 30; 4: 35; 5: 33

----------
- Test system: CD1 mice
- measurementDescription: Intestinotrophic activity assessment: small bowel weight in mice
- Type: in vivo
- measurementContext: mice, as Example 4; relative to native rat GLP-2(1-33)
Hi! Just check whether % Activity (small bowel inducing activity relative to native rat GLP-2(1-33) = 100%) is below 80%. Below gives condition met, equal or above gives condition not met.

Known results for substances:
H-HQDGSFSDEMNTILDNLAARDFINWLIQTKITD-OH [[Gln2]hGLP-2(1-33)]; condition not met
H-HGDGSFSDEMNTILDNLAARDFINWLIATKITD-OH [[Gly2,Ala28]hGLP-2(1-33)]; condition not met
H-GSFSDEMNTILDNLATRDFINWLIQTKITD-OH [ratGLP-2(4-33)]; condition met
H-HIDGSFSDEMNTILDNLAARDFINWLIQTKITD-OH [[Ile2]hGLP-2(1-33)]; condition not met
H-HADASFSDEMNTILDNLATRDFINWLIQTKITD-OH [[Ala4]ratGLP-2(1-33)]; condition met

Lab log: compare recorded % Activity (small bowel inducing activity relative to native rat GLP-2(1-33) = 100%) with 80%; is it strictly lower for H-RHADGSFSDEMNTILDNLATRDFINWLIQTKITD-OH [[Arg-l]ratGLP-2(-1-33)] ?
condition met

Lab log: compare recorded % Activity (small bowel inducing activity relative to native rat GLP-2(1-33) = 100%) with 80%; is it strictly lower for H-HADGAFADEMNTILDNLAARDFINWLIQTKITD-OH [[Ala5, Ala7]hGLP-2(1-33)] ?
condition not met

Lab log: compare recorded % Activity (small bowel inducing activity relative to native rat GLP-2(1-33) = 100%) with 80%; is it strictly lower for H-HGDGSFSDEMNTILDNAAARDFINWLIQTKITD-OH [[Gly2,Ala17]hGLP-2(1-33)] ?
condition not met

Lab log: compare recorded % Activity (small bowel inducing activity relative to native rat GLP-2(1-33) = 100%) with 80%; is it strictly lower for Ac-HADGSFSDEMNTILDNLATRDFINWLIQTKITD-OH [Ac-ratGLP-2(1-33)] ?
condition met

Lab log: compare recorded % Activity (small bowel inducing activity relative to native rat GLP-2(1-33) = 100%) with 80%; is it strictly lower for H-HADGSFSDEMNTILDNLAARDFINFLIQTKITD-OH [[Phe25]hGLP-2(1-33)] ?
condition not met

Lab log: compare recorded % Activity (small bowel inducing activity relative to native rat GLP-2(1-33) = 100%) with 80%; is it strictly lower for H-HGDGSASDEMNTILDNLAARDFINWLIQTKITD-OH [[Gly2,Ala6]hGLP-2(1-33)] ?
condition met

----------
Could you please report measured metabolised at 24 h, 0.19 mg/ml for the items listed next?
- targetOrTestSystem: DPP-IV (Homo sapiens)
- Sequence (P27487 whole entry): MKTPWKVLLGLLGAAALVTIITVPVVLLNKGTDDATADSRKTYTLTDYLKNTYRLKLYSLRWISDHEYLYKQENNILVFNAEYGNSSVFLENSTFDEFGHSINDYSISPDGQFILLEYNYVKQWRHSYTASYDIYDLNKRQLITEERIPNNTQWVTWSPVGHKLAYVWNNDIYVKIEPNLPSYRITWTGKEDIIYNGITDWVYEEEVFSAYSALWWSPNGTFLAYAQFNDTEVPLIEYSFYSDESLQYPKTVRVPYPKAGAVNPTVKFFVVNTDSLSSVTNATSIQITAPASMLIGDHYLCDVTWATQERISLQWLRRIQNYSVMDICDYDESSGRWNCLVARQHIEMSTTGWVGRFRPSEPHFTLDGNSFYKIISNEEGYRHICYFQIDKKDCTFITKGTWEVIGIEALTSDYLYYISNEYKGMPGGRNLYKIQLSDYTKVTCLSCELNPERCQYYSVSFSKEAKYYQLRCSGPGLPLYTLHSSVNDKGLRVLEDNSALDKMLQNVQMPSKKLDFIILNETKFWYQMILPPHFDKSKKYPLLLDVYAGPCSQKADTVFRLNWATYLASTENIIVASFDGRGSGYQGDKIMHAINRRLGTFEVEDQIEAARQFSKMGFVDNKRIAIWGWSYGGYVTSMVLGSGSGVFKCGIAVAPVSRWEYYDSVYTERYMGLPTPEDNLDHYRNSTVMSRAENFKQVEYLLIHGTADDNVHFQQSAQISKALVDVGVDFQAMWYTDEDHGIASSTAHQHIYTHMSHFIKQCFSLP
- measurementDescription: Assay for resistance to dipeptidyl peptidase IV (RP-HPLC of cleavage product)
- measurementContext: human, isolated human placental DPP-IV (dipeptidyl peptidase IV), pH 7.4, % Cleaved by DPP-IV, as Example 3: human placental DPP-IV, 37° C., PBS pH 7.4
No end group written: not given here.
Answers are plain numbers, in %.

Solved entries (count: 3):
H-HAEGSFSDEMNTILDNLATRDFINWLIQTKITD-OH [[Glu3]ratGLP-2(1-33)]; 50
H-DADGSFSDEMNTILDNLAARDFINWLIQTKITD-OH [[Asp1]hGLP-2(1-33)]; 0
H-HHDGSFSDEMNTILDNLAARDFINWLIQTKITD-OH [[His2]hGLP-2(1-33)]; 0

For each of the items listed, what is its metabolised at 24 h, 0.19 mg/ml?
1. H-HYDGSFSDEMNTILDNLAARDFINWLIQTKITD-OH [[Tyr2]hGLP-2(1-33)]
2. HVDGSFSDEMNTILDNLATRDFINWLIQTKITD [[Val2]GLP-2(1-33)]
3. H-AGDGSFSDEMNTILDNLAARDFINWLIQTKITD-OH [[Ala1,Gly2]hGLP-2(1-33)]

[0, 0, 0]

----------
Could you please report measured % Activity (small bowel inducing activity relative to native rat GLP-2(1-33) = 100%) for the items listed next?
- Tested on: CD1 mice
- measurementDescription: Intestinotrophic activity assessment: small bowel weight in mice
- Format: in vivo
- measurementContext: mice, as Example 4; relative to native rat GLP-2(1-33)
Answers are plain numbers, in %.

Solved entries (count: 5):
H-HKDGSFSDEMNTILDNLAARDFINWLIQTKITD-OH [[Lys2]hGLP-2(1-33)]; 90
H-HGDGSFSDEMNTILDNLAARDFIAWLIQTKITD-OH [[Gly2,Ala24]hGLP-2(1-33)]; 139
H-HGDGSFSDEMNTILDNLAARDFINALIQTKITD-OH [[Gly2,Ala25]hGLP-2(1-33)]; 18
H-HGDGSFSDEMNAILDNLAARDFINWLIQTKITD-OH [[Gly2,Ala12]hGLP-2(1-33)]; 67
H-HEDGSFSDEMNTILDNLAARDFINWLIQTKITD-OH [[Glu2]hGLP-2(1-33)]; 93

For each of the items listed, what is its % Activity (small bowel inducing activity relative to native rat GLP-2(1-33) = 100%)?
1. H-HADGSFSDYSKYLDNLAARDFINWLIQTKITD-OH
2. H-HGDGSFSDEMNTILDNLAARDFINWLIQTKATD-OH [[Gly2,Ala31]hGLP-2(1-33)]
3. H-HYDGSFSDEMNTILDNLAARDFINWLIQTKITD-OH [[Tyr2]hGLP-2(1-33)]
4. H-HFDGSFSDEMNTILDNLAARDFINWLIQTKITD-OH [[Phe2]hGLP-2(1-33)]
5. H-HADGSFSDEMNTILDNLATKDFINWLIQTKITD-OH [[Lys20]ratGLP-2(1-33)]
6. H-HGDGSFSDEMNTILDNLAARDFINWLAQTKITD-OH [[Gly2,Ala27]hGLP-2(1-33)]

94
100
57
50
120
82
